- experiment-summary: P-glycoprotein substrates identified in KB-8-5-11 adenocarcinoma cell line, qHTS therapeutic library screen (AID 1346987); also: nearly all actives have a fitted effect of over 65% in size
- assay-context: KB-8-5-11 (P-gp overexpressing) viability, CellTiter-Glo, 72 h; series mostly up to 44.5 µM
Results filed as inconclusive are left out. The source made the active and inactive calls. Calls follow the shape of the dose curve; as a rule, active = well fitted inhibition curve with a large enough effect; inconclusive = small, poorly fitted or top-dose-only effect; inactive = flat fitted curve, though single readings scatter.
# valid calls are active, inactive; nothing else

Look up the recorded call for `CCN(CC)CCNc1ccc2ncn3c4ccc(O)cc4c(=O)c1c23` in this test. active

Outcome? O=C1O[C@H](C(O)CO)C(=O)C1=O (stereo not given in full) inactive

Short answer needed: outcome of this test for `CC(C)n1nc(-c2ccc(NC(=O)Nc3cccc(C(F)(F)F)c3)cc2)c2c(N)ncnc21` ? active

Please state the recorded outcome for this compound: `CN[C@H]1CCN(C(=O)c2ccc(Nc3ncc(F)c(-c4cnc(C)n4C(C)C)n3)cc2)C1` active

Recorded test call requested for `O=C1NC(=O)/C(=C\c2ccc3nccc(-c4ccncc4)c3c2)S1` active

How did this test come out for `Clc1ccc2ncc(-c3cccc(NC4CCNCC4)n3)n2c1` ? active

Call for entry `CCOC(=O)c1c2c3c(cccc3[nH]c1=O)C(=O)c1ccccc1-2` : inactive

Dear colleague, could you share the recorded outcome for `COCCNCc1ccc(-c2cc3nccc(Oc4ccc(NC(=S)NC(=O)Cc5ccc(F)cc5)cc4F)c3s2)nc1` when you have a moment? active

Could you kindly confirm the outcome this assay logged for `Oc1cccc(-c2nc(N3CCOCC3)c3sccc3n2)c1` ? active

For CCCCCCCCCCCCCCCCSCC(COC)COP(=O)([O-])OCC[N+](C)(C)C (stereo not given) , which call appears in the assay record? inactive

###

- experiment-summary: qHTS for activators of Nrf2/ARE signaling pathway screened against the NCATS CANVASS Library (AID 1347391); also: nearly all actives have a fitted effect of over 60% in size; as to activation: 0% is about no effect
- assay-context: ARE-bla HepG2, beta-lactamase reporter, 16 h; series mostly up to 46.1 µM
Inconclusive results are not listed. The source made the active and inactive calls. Calls come from the whole dose curve; as a rule, active = well fitted activation curve with a large enough effect; inconclusive = small, poorly fitted or top-dose-only effect; inactive = no such curve, though single readings can be large or run the other way.
Answer with one of the outcomes given here: active, inactive

Assay outcome for C=C(NC(=O)c1csc(-c2nc3c(cc2O)-c2nc(cs2)C(=O)NC(C(C)O)C(=O)N/C(=C(\C)O)c2nc(cs2)C(=O)NC2c4nc(cs4)C(=O)NC(COC(=O)c4c5c6c(cccc6n4O)COC(=O)[C@@H](OC4C[C@](C)(O)[C@H](N(C)C)[C@H](C)O4)C2OC5)c2nc-3cs2)n1)C(N)=O (some centres not stated) : what was it? inactive

Please share the test call associated with `COc1ccc(/C=C2\COc3cc(O)ccc3C2=O)cc1` . active

Could you check what this test reported for `C=C[C@]1(C)CC[C@@H]([C@H](C)C(=O)/C=C/C(C)C)O1` ? inactive

Each molecule tested received a call. Report the one for Oc1ccc(/C=C2/c3cc(O)cc(O)c3C(c3ccc(O)cc3)[C@H]2c2cc(O)cc(O)c2)cc1 (some centres not stated) . inactive

Please indicate how the test categorized C=C1C[C@@]23C=CC(=O)[C@@](C)(CCC(=O)Nc4c(OC5O[C@H](CO)[C@@H](O)[C@H](O)[C@H]5O)ccc(C(=O)O)c4O)C2C[C@@H]1CC3 (some centres not stated) . inactive

Each molecule tested received a call. Report the one for C=C1C[C@@]23C=CC(=O)[C@@](C)(CCC(=O)Nc4c(O)ccc(C(=O)O)c4O)C2C[C@@H]1CC3O (some centres not stated) . inactive

Just curious, what result did C=C1C[C@@]23C=CC(=O)[C@@](C)(CCC(=O)Nc4c(O)ccc(C(=O)O)c4O)C2C[C@@H]1CC3 (some centres not stated) get here? active

###

Would you mind telling me the reported activity, negative = cell killing of each entry?
- experiment-summary: Drug repurposing screens with cells derived from glioblastoma tumor samples (AID 1345199); also: % is scaled to controls: 0 for no effect and ±100 for the full control effect; nearly all actives have a fitted effect of over 40% in size
- assay-context: GBM patient neurospheres viability, ATP luminescence, 48 h; at 45.9 µM (top of the series); tumour line D
Inconclusive results are not listed. Activity calls are given as the source filed them. The call rests on the fitted dose curve; in most records, active means well fitted inhibition curve with a large enough effect; inconclusive means small, poorly fitted or top-dose-only effect; inactive means flat fitted curve, though single readings scatter.

Quick one: activity, negative = cell killing for `N[C@@H](C(=O)N[C@@H]1C(=O)N2C(C(=O)O)=C(CSc3cn[nH]n3)CS[C@H]12)c1ccc(O)cc1` ? -13.1% (inactive)

Look up activity, negative = cell killing: `CCNC(=O)[C@@H]1CCCN1C(=O)[C@H](CCCN=C(N)N)NC(=O)[C@H](CC(C)C)NC(=O)[C@@H](CC(C)C)NC(=O)[C@H](Cc1ccc(O)cc1)NC(=O)[C@H](CO)NC(=O)[C@H](Cc1c[nH]c2ccccc12)NC(=O)[C@H](Cc1cnc[nH]1)NC(=O)[C@@H]1CCC(=O)N1` 4.71% (inactive)

Recorded activity, negative = cell killing for `C=C1/C(=C\C=C2/CCC[C@]3(C)[C@@H]([C@H](C)OCCC(C)(C)O)CC[C@@H]23)C[C@@H](O)C[C@@H]1O` , please? -17.2% (inactive)

Query (compound): COc1cc([C@@H]2c3cc4c(cc3C(O[C@@H]3O[C@@H]5CO[C@@H](C)O[C@H]5[C@H](O)[C@H]3O)C3COC(=O)[C@@H]32)OCO4)cc(OC)c1OP(=O)(O)O (some centres undefined) ; field requested: activity, negative = cell killing -17% (inactive)

###

- study-system: Furin (Homo sapiens) (UniProt P09958)
- Sequence (P09958 whole entry, looked up): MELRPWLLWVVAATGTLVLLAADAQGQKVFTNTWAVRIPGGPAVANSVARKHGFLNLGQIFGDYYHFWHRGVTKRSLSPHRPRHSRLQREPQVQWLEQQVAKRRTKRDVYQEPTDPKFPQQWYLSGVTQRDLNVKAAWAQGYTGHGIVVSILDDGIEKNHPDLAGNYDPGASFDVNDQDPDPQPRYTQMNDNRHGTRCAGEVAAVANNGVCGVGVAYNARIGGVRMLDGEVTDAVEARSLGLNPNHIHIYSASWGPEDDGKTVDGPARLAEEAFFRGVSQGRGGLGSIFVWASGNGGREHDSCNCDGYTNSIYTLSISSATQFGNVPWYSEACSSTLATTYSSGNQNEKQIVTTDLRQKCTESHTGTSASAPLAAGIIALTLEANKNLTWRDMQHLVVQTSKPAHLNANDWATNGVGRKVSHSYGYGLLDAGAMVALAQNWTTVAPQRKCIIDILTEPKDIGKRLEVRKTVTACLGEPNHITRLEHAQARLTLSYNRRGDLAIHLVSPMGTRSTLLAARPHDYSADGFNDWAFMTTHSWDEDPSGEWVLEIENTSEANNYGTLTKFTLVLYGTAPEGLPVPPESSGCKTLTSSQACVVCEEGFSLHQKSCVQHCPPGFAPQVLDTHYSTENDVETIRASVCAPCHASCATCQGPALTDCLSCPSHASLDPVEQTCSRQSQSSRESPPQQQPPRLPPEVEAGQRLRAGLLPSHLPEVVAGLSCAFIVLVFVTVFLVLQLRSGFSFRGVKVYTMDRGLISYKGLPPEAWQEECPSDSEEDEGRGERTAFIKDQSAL
- experiment-summary: Furin counterscreen qHTS for Zika virus inhibitors (AID 1347149); also: nearly all actives have a fitted effect of over 70% in size; also: potency is read from the fitted curve at half-maximal effect
- assay-context: furin enzymatic counterscreen, fluorogenic substrate; series mostly up to 114 µM
Records with an inconclusive call do not appear. Activity calls are given as the source filed them. Calls follow the shape of the dose curve; as a rule, active = well fitted inhibition curve with a large enough effect; inconclusive = small, poorly fitted or top-dose-only effect; inactive = no such curve, though single readings can be large or run the other way.
endpoint: Potency

CCOC(=O)c1c(-c2ccccc2)oc2ccc(NS(=O)(=O)c3ccc(C(C)C)cc3)cc12    46.9 µM (active)
N#CC(C#N)=C(N)/C(C#N)=C/c1cc(O)c(O)c(O)c1    inactive
O=C(CSc1ncccc1C(=O)Oc1ccccc1Cl)Nc1ccc(C(F)(F)F)cc1Cl    inactive
CCOC(=O)c1ccc(NC(=O)CSc2nc(-c3ccc(OC)cc3)cc(C(F)(F)F)c2C#N)cc1    inactive
O=C(COc1ccccc1C(=O)OCC(=O)Nc1cccc2ccccc12)Nc1ccc(Br)cc1    inactive
O=C(Nc1ccc(C(=O)OCc2cc(=O)n3c4c(sc3n2)CCCC4)cc1)c1ccccc1    41.8 µM (active)

Dear colleague, I am looking for the recorded Potency of the following compound: `Cc1cccc(OCC(=O)Nc2ccc(C(=O)OCc3cc(=O)n4nc(C5CC5)sc4n3)cc2)c1` inactive

Could you share which Potency value was measured for `Cc1oc2c(cc(NS(=O)(=O)c3ccc(C(C)C)cc3)c3ccccc32)c1C(=O)OCc1ccccc1` ? inactive

What Potency value was documented for this compound, CC(C)CN1CC(COc2ccc3ccccc3c2)Oc2ccnc(-c3ccc(OCC(=O)O)cc3)c2C1=O (centres undefined) ? inactive

###

- experiment-summary: KB-3-1 Cancer Cell Toxicity qHTS against the NCATS CANVASS Library (AID 1347366); also: nearly all actives have a fitted effect of over 75% in size; also: potency is read from the fitted curve at half-maximal effect
- assay-context: KB-3-1 viability, CellTiter-Glo luminescence, 72 h; series mostly up to 46.1 µM
Results filed as inconclusive are left out. The source made the active and inactive calls. Calls follow the shape of the dose curve; as a rule, active = well fitted cell-killing curve with a large enough effect; inconclusive = small, poorly fitted or top-dose-only effect; inactive = flat fitted curve, though single readings scatter.
endpoint: Potency

// below: answered molecules
C[C@@]12CCC[C@@](C)(C(=O)O)[C@H]1CC[C@]13C[C@H]4C[C@H](O[C@@]4(C)C1)[C@H]32    inactive
O=C(O)CC1OCc2c(O)cccc21 (stereo not drawn)    inactive
C/C1=C/[C@@H](C)[C@H](O)C/C=C/CC/C=C/C(=O)O[C@@H]1[C@H](C)C(=O)/C=C/CC1CC(=O)NC(=O)C1    13.2 µM (active)
C=C1C(=O)C[C@H]2C[C@@H]1[C@]2(C)CCC=C(C)C    inactive
C[C@@H](CCC[C@]1(C)C(=O)C=C[C@]23C[C@H]4C[C@H](O[C@@]4(C)C2)C31)C(=O)N[C@@H](CO)C(=O)O (stereo partly drawn)    inactive
CC(C)=CCC[C@@H](C)[C@@H]1CC[C@@]2(C)C[C@H]3C(C)=CC(=O)[C@@H]3/C(C=O)=C\C[C@H]12    10.5 µM (active)
C=C1C[C@@]23C=CC(=O)[C@@](C)(CCC(=O)Nc4c(OC5O[C@H](CO)[C@@H](O)[C@H](O)[C@H]5O)ccc(C(=O)O)c4O)C2C[C@@H]1CC3 (stereo partly drawn)    inactive

API: the following record is the query input.
Query (molecule): C=CC(=C)CC[C@]1(C)[C@H]2C[C@H](OC(=O)C(C)CC)C=C3[C@H](OC(C)=O)O[C@H](OC(C)=O)[C@@]32[C@H](OC)C[C@@H]1C (stereo partly drawn) ; field requested: Potency 6.79 µM (active)

###

- experiment-summary: qHTS for differential inhibitors of proliferation of Plasmodium falciparum line D10 (AID 1877);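 also: parasites grown with compound for 72 h before DNA staining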
- assay-context: series mostly up to 28.7 µM
Inconclusive results are not listed. Activity calls are given as the source filed them. The call rests on the fitted dose curve; in most records, active means well fitted curve in the direction sought with a large enough effect; inconclusive means small, poorly fitted or top-dose-only effect, or another doubt; inactive means no such curve, though single readings can be large or run the other way.
Hi! Could you answer with just one of these? true = active, false = inactive

Please share the test call associated with `COC(=O)c1c(-c2cc(OC)c(OC)c(OC)c2)c2ccnc(OCc3ncccn3)c2c(=O)n1Cc1ccnc(C)c1` . true

GET /call?item= `COc1[nH]c2ccc(F)cc2c1C(=O)OCC1CCN(CCNS(C)(=O)=O)CC1` returns the recorded outcome of this test. true

Each molecule tested received a call. Report the one for `CC(N)=NCc1cccc(CN)c1` . false

Hello, I am checking results. What call was entered for `Cc1cccc(C)c1NC(=O)C[N+](C)(C)C` ? false
